- Species: Rattus norvegicus
- protocol-summary: DrugMatrix - Regimen: Daily Repeat
- Assay type: toxicity, organism-based, Sprague-Dawley
- Parameters: regimen Daily Repeat, gender Male, age 6-8 weeks
- settings: in vivo, po, 0 mg/kg, 120 h, tissue Plasma, route oral GAVAGE, dose level Control, time 5 day, vehicle .5 % CMC
readout-type: PHOSPHORUS

compound: C[C@]12C/C(=C/O)C(=O)C[C@@H]1CC[C@@H]1[C@@H]2CC[C@@]2(C)[C@H]1CC[C@]2(C)O [OXYMETHOLONE]
readout-type: PHOSPHORUS
result: 12.07 mg/dL

compound: CC(C)(Sc1cc(C(C)(C)C)c(O)c(C(C)(C)C)c1)Sc1cc(C(C)(C)C)c(O)c(C(C)(C)C)c1 [PROBUCOL]
readout-type: PHOSPHORUS
result: 11.48 mg/dL

compound: CN1C(=O)CN=C(c2ccccc2)c2cc(Cl)ccc21 [DIAZEPAM]
readout-type: PHOSPHORUS
result: 11.38 mg/dL

compound: CO[C@H]1C[C@@H]2CC[C@@H](C)[C@@](O)(O2)C(=O)C(=O)N2CCCC[C@H]2C(=O)O[C@H]([C@H](C)C[C@@H]2CC[C@@H](O)[C@H](OC)C2)CC(=O)[C@H](C)/C=C(\C)[C@@H](O)[C@@H](OC)C(=O)[C@H](C)C[C@H](C)/C=C/C=C/C=C/1C [SIROLIMUS]
readout-type: PHOSPHORUS
result: 12 mg/dL

compound: Cc1cnc(C(=O)NCCc2ccc(S(=O)(=O)NC(=O)NC3CCCCC3)cc2)cn1 [GLIPIZIDE]
readout-type: PHOSPHORUS
result: 12.3 mg/dL

compound: CC(=O)O[C@]1(C(C)=O)CC[C@H]2[C@@H]3C=C(Cl)C4=CC(=O)[C@@H]5C[C@@H]5[C@]4(C)[C@H]3CC[C@@]21C [CYPROTERONE ACETATE]
readout-type: PHOSPHORUS
result: 12.3 mg/dL

compound: COc1ccc(/C=C/C(=O)Nc2ccccc2C(=O)O)cc1OC
readout-type: PHOSPHORUS
result: 11.48 mg/dL
